# tgt: MTHFSD (Homo sapiens)
# Sequence: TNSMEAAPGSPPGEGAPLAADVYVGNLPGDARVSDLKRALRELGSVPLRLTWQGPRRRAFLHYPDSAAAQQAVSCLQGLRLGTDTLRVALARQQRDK
# measurement.protocol: protein domain microarray probed with biotinylated miRNA; Domain array: 20 mM Tris-HCl pH 7.4, 200 mM KCl, 0.2 mM EDTA, 0.05% NP40, 2 ug/ul heparin, overnight 4 C. ORF array: PBS pH 7.0 with RNase inhibitor, 100 ng RNA; high values mean tight binding
# run.parameters: ssRNA
measure.name: binding signal (fluorescence intensity)
Express it in fluorescence intensity; write the number only.

# count of solved cases: 4
>  <sequence.record>
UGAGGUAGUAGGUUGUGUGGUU

>  <measure.unit>
fluorescence intensity

>  <binding signal>
439

$$$$
>  <sequence.record>
UGAGGUAGUAGGUUGUAUAGUU

>  <measure.unit>
fluorescence intensity

>  <binding signal>
133

$$$$
>  <sequence.record>
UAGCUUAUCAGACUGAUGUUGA

>  <measure.unit>
fluorescence intensity

>  <binding signal>
42.6

$$$$
>  <sequence.record>
AGAGGUAGUAGGUUGCAUAGUU

>  <measure.unit>
fluorescence intensity

>  <binding signal>
716

$$$$

// next entry
**Query** Given `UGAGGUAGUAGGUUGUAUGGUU` , state its recorded binding signal.
**Result** 488
